- system: stromelysin (MMP-3) (Homo sapiens)
- Construct: enzymatic activity of the catalytic domains of human stromelysin and of neutrophil collagenase
- Sequence (P08254 100-272 limits assumed): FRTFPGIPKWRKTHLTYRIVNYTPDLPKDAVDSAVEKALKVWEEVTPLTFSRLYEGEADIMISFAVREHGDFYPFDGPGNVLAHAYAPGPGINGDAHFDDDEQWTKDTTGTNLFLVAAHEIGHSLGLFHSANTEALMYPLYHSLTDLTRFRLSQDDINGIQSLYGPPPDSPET
- test summary: Enzymatic activity of the catalytic domain of human stromelysin (fluorogenic substrate)
- condition summary: pH=6.5, 15 min preincubation, fluorescence 328 nm (ex)/393 nm (em)
property label: IC50 (nM)

Reference set (6 entries):
molecule: CCN(C(=O)CC[C@H](NS(=O)(=O)c1ccc(-c2ccccc2)cc1)C(=O)O)c1ccccc1
property label: IC50
value measured: 400
--
molecule: O=C(O)[C@@H](Cc1c[nH]c2ccccc12)NS(=O)(=O)c1ccc(-c2ccc(N3CCCC3)cc2)cc1
property label: IC50
value measured: 10
--
molecule: O=C(O)CCCC(NS(=O)(=O)c1ccc(-c2ccccc2)cc1)C(=O)O (racemic)
property label: IC50
value measured: 100
--
molecule: CS(=O)(=O)CC[C@@H](NS(=O)(=O)c1ccc(-c2ccc(Cl)cc2)cc1)C(=O)O
property label: IC50
value measured: 70
--
molecule: CSCC[C@H](NC(=O)CC[C@H](NS(=O)(=O)c1ccc(-c2ccccc2)cc1)C(=O)O)C(=O)O
property label: IC50
value measured: 40
--
molecule: C[S+]([O-])CC[C@@H](NS(=O)(=O)c1ccc(-c2ccc(Cl)cc2)cc1)C(=O)O (some centres unmarked)
property label: IC50
value measured: 100

1. CSCC[C@@H](NS(=O)(=O)c1ccc(-c2ccc(N(C)C)cc2)cc1)C(=O)O
2. O=C(C[C@H](NS(=O)(=O)c1ccc(-c2ccc(Cl)cc2)cc1)C(=O)O)OCc1ccccc1
Lower value of IC50 belongs to which: 1 or 2 ? State the label of the item chosen.
1
(1: 90 nM, 2: 200 nM)
